B1: CPEB3 Ribozyme (parent)
chain: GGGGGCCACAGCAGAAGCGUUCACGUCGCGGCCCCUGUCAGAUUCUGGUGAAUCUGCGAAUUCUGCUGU

variants of: B1; test: self-cleavage, relative activity (ratio to wild type); higher = more cleavage; co-transcriptional
Param threshold (0.7) applies to self-cleavage; output Fulfilled when value >= threshold, Not fulfilled when value < threshold.

[in] Test whether the variant C33U C35A records self-cleavage of 0.7 or higher.
[out] Not fulfilled
